# assay.explanation: Toxicity in po dosed ICR mouse after 7 days
# Type: organism-based
# assay.conditions: in vivo
assay.readout: LD50 at 168 h
Mention the unit after the number when you answer.

Data request, read-out LD50 at 168 h, for CCCCOc1c(OC)ccc2c(Cc3ccc(C(C)C)cc3)c3[n+](cc12)CCc1cc2c(cc1-3)OCO2.[Cl-]
900 mg/kg
